- Experiment: Light stability test (Test Example 3)
- Type: physicochemical
- Condition info: glass plate, uv light
Reported remaining at 3.5 h values are given for each entry in this list.
Report as a plain number; the unit % is understood.

CC1(C)C(CC(Cl)(Cl)Cl)C1C(=O)OCN1C(=O)C2=C(CCCC2)C1=O (stereo not drawn) [(37) [Mixture]] : 16

Exam item: Which remaining at 3.5 h value belongs to CC1(C)C(CC(Cl)(Cl)Cl)C1C(=O)OC(C#N)c1cccc(Oc2ccc(Cl)cc2)c1 (stereo not drawn) [(15) [Mixture]] ?
Marked response: 100

Exam item: Record: C#CC(OC(=O)[C@@H]1[C@H](CC(C)(Cl)Cl)C1(C)C)c1cccc(Oc2ccccc2)c1 (relative stereo) [(13) [Cis-isomer]]
Marked response: 100

Exam item: Likewise for CC1(C)C(CC(Cl)(Cl)Cl)C1C(=O)OC(C#N)c1cccc(Oc2ccccc2)c1 (stereo not drawn) [(7) [Mixture]] ?
Marked response: 100

Exam item: Proceed to C#CC(OC(=O)C1C(CC(Cl)(Cl)Cl)C1(C)C)c1cccc(Oc2ccccc2)c1 (stereo not drawn) [(11) [Mixture]]
Marked response: 100

Exam item: Would you kindly repeat that for C=CCC1=C(C)C(OC(=O)C2C(CC(Cl)(Cl)Cl)C2(C)C)CC1=O (stereo not drawn) [(38) [Mixture]] ?
Marked response: 21

Exam item: Next entry: CC1(C)[C@H](C(=O)OCc2cccc(Oc3ccccc3)c2)[C@@H]1CC(Cl)(Cl)Cl (relative stereo) [(1) [Cis-isomer]]
Marked response: 97

Exam item: Same question, CC1(C)C(CC(Cl)(Cl)Cl)C1C(=O)OCc1coc(Cc2ccccc2)c1 (stereo not drawn) [(28) [Mixture]] this time
Marked response: 5

Exam item: Then this molecule: C#CC(OC(=O)C1C(CC(Cl)(Cl)Cl)C1(C)C)c1cccc(Oc2ccc(Cl)cc2)c1 (stereo not drawn) [(21) [Mixture]]
Marked response: 100

====

- Experiment: Light stability test (Test Example 3)
- Type: physicochemical
- Condition info: glass plate, uv light
Quantity: remaining at 120 h (%)
Write the answer as a number in %, unit excluded.

Look over these answered cases.
C#CC(OC(=O)[C@@H]1[C@H](CC(C)(Cl)Cl)C1(C)C)c1cccc(Oc2ccccc2)c1 (relative stereo) [(13) [Cis-isomer]] : 73
CC1(C)C(CC(Cl)(Cl)Cl)C1C(=O)OC(C#N)c1cccc(Oc2ccccc2)c1 (stereo not drawn) [(7) [Mixture]] : 75
C#CC(OC(=O)C1C(CC(Cl)(Cl)Cl)C1(C)C)c1cccc(Oc2ccccc2)c1 (stereo not drawn) [(11) [Mixture]] : 65
C#CC(OC(=O)C1C(CC(Cl)(Cl)Cl)C1(C)C)c1cccc(Oc2ccc(Cl)cc2)c1 (stereo not drawn) [(21) [Mixture]] : 56
CC1(C)[C@H](C(=O)OCc2cccc(Oc3ccccc3)c2)[C@@H]1CC(Cl)(Cl)Cl (relative stereo) [(1) [Cis-isomer]] : 85

As a next step, examine the compound that follows.
Exam item: Given the entry CC1(C)C(CC(Cl)(Cl)Cl)C1C(=O)OC(C#N)c1cccc(Oc2ccc(Cl)cc2)c1 (stereo not drawn) [(15) [Mixture]] , report its measured remaining at 120 h.
Marked response: 96

====

- Experiment: Light stability test (Test Example 3)
- Format: physicochemical
- Condition info: uv light; exposure time 5 days, ultraviolet light 3600 A, glass plate, 31°-35° C.; [Mixture] = cis/trans 50/50; read-out: Residue (%)
Quantity: remaining at 120 h (%)
Write the number in % without appending the unit.

Exam item: // returns reported remaining at 120 h for input CC1(C)C(CC(Cl)(Cl)Cl)C1C(=O)OC(C#N)c1cccc(OC=C(Cl)Cl)c1 (stereo not shown) [(34) [Mixture]]
Marked response: 44

====

- Experiment: Light stability test (Test Example 3)
- Assay type: physicochemical
- Condition info: uv light; exposure time 3.5 hours, ultraviolet light 3600 A, glass plate, 31°-35° C.; [Mixture] = cis/trans 50/50; read-out: Residue (%)
In this section we review reported remaining at 3.5 h values for a set of compounds.
Provide only the numeric value, understood in %.

C=CCC1=C(C)C(OC(=O)C2C(C=C(C)C)C2(C)C)CC1=O (centres unmarked) [Allethrin, allethrin, reference compound] : 14

Next item in the queue.
Exam item: Quick one: remaining at 3.5 h of CC1(C)C(CC(Cl)(Cl)Cl)C1C(=O)OC(C#N)c1cccc(OC=C(Cl)Cl)c1 (centres unmarked) [(34) [Mixture]] ?
Marked response: 100
